# pIC50 against Coagulation factor XI (Homo sapiens, UniProt P03951), merged from multiple literature sources
pIC50: −log10 of the molar value.
Threshold check on pIC50: at or above 6 gives Met, strictly below gives Not met.

compound | class_assignment
NC(=O)c1ccc(NC(=O)C(C[C@@H]2COCCO2)n2cc3c(cc2=O)-c2cc(Cl)ccc2CC(C(F)(F)F)OC3)cc1 (mixture of isomers) | Met
COc1cn(C(C[C@H]2CCCCO2)C(=O)Nc2ccc3nn(C)cc3c2)c(=O)cc1-c1cc(Cl)ccc1OCC(F)(F)F (stereo partly shown) | Met
O=C(Nc1ccc(-c2nnn[nH]2)cc1)[C@@H]1CCC2CC(c3c(-n4cnnn4)ccc(Cl)c3F)=CC(=O)N21 (mixture of isomers) | Met

Evaluate "Cc1nc(N2C[C@H]3C[C@H]3C2=O)ncc1[C@H](CO)n1cc(NC(=O)c2cncc(-c3c(C(F)F)ccc(Cl)c3F)n2)cn1" : pIC50 at minimum 6? Not met

Evaluate COc1cn(C(C[C@@H]2CCCCO2)C(=O)Nc2ccc(C(N)=O)c(F)c2)c(=O)cc1-c1cc(Cl)ccc1OCC(F)(F)F (stereo partly shown) : pIC50 at minimum 6? Met

Evaluate "O=C(Nc1ccc2nc[nH]c(=O)c2c1)[C@@H]1CC[C@@H]2CC(c3c(-n4cnnn4)ccc(Cl)c3F)=CC(=O)N21" : pIC50 at minimum 6? Met

Evaluate "Nc1c(C(=O)N2CCC[C@@]3(C2)OC(=O)Nc2ccc(Cl)c(F)c23)cnn1CC(F)(F)C(F)(F)F" : pIC50 at minimum 6? Met

Evaluate "Cc1nc(Cn2cc(NC(=O)c3cncc(-c4c(C(F)F)ccc(Cl)c4F)n3)cn2)cnc1N1CCC1" : pIC50 at minimum 6? Met

Evaluate CCC(c1ccc2c(c1)COC2)c1nnc(C(=O)N2CCC[C@@]3(C2)OC(=O)Nc2ccc(Cl)c(F)c23)[nH]1 (single isomer, unassigned) : pIC50 at minimum 6? Not met
